target entity: interaction between biotinylated human S100A9 and human RAGE-Fc (Homo sapiens, UniProt P06702)
Sequence (P06702 whole entry, one chain of several): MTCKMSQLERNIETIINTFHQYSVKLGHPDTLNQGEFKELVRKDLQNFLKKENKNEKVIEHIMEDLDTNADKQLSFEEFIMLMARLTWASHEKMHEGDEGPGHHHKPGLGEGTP
test details: AlphaScreen inhibition assay, biot-hS100A9:hRAGE-Fc
recorded conditions: biot-hS100A9 pre-incubated with compound 1 h, assay buffer with CaCl2 and ZnCl2
Excerpt: Inhibition Assay, Biot-hS100A9:hRAGE-Fc The AlphaScreen (Amplified Luminescent Proximity Homogeneous Assay) contains two types of beads, Alpha Donor beads and Acceptor beads (PerkinElmer). Upon laser excitation at 680 nm a photosensitizer in the Donor bead converts ambient oxygen to a more excited singlet state. […] Fluorophores in the Acceptor bead subsequently emit light at 520-620 nm which can be detected in the EnVision® Multilabel plate Reader (PerkinElmer). […]
observable: log10 IC50 (log10 of the value in nM)
Each number you see is log10 of IC50, and the unit inside the log is nM.

// below: answered compounds
compound | log10 IC50
COc1ccc(-c2c(C(=O)O)nc3sc4c(n23)CC(C)(C)CC4(C)C)cc1 | 3.06
O=C(O)C1(CO)CN2C(=N1)Sc1c2ccc(F)c1Cl (stereo not drawn) | 3.03

log10 IC50 lookup needed for `O=C(O)c1nc2sc3c(Cl)c(F)ccc3n2c1NCCN1CCCC1` , thanks.
3.02

log10 IC50 lookup needed for `CC1(C)Cc2c(sc3nc(C(=O)O)cn23)C(C)(C)C1` , thanks.
2.51

log10 IC50 lookup needed for `O=C(O)c1nc2sc3c(Cl)c(F)ccc3n2c1N1CCOCC1` , thanks.
2.30

log10 IC50 lookup needed for O=C(O)c1cn2c3c(sc2n1)CC(c1ccccc1)CC3 (stereo not drawn) , thanks.
3.18

log10 IC50 lookup needed for `O=C(O)c1cn2c(n1)sc1c(Cl)cc(Cl)cc12` , thanks.
2.97

log10 IC50 lookup needed for O=C(O)c1cn2c3c(sc2n1)C(O)CCC3 (stereo not drawn) , thanks.
3.47

log10 IC50 lookup needed for `O=C(O)c1cn2c(n1)sc1c(OC(F)(F)F)cccc12` , thanks.
3.19

----------
Let's look at some compounds and their measured pIC50.
target entity: interaction between biotinylated human S100A9 and human RAGE-Fc (Homo sapiens, UniProt P06702)
test details: AlphaScreen inhibition assay, biot-hS100A9:hRAGE-Fc
recorded conditions: biot-hS100A9 pre-incubated with compound 1 h, assay buffer with CaCl2 and ZnCl2
Schema: pIC50 number; meaning minus log10 of the concentration expressed in molar units.

compound | pIC50
O=C(O)c1cn2c(n1)sc1cc(Cl)cc(Cl)c12 | 5.80
O=C(O)c1cn2c(n1)sc1c(Cl)c(Cl)ccc12 | 6.89
O=C(O)c1cn2c(n1)sc1c(Cl)cccc12 | 5.89
O=C(O)c1cn2c(n1)sc1c(Cl)c(C3CC3)ccc12 | 6.54
CS(=O)(=O)NC(=O)c1cn2c(n1)sc1c(Cl)c(OC(F)(F)F)ccc12 | 6.11
CC1(C)Cc2c(sc3nc(C(=O)O)c(C4CC4)n23)C(C)(C)C1 | 6.29
O=C(NS(=O)(=O)c1ccccc1)C1CN2C(=N1)Sc1c2ccc(F)c1Cl (stereo not drawn) | 6.77
O=C(O)c1cn2c(n1)sc1c(F)c(Cl)ccc12 | 6.46

Please turn your attention to the following entry.
pIC50 lookup needed for `CN1CCN(c2c(C(=O)O)nc3sc4c(Cl)c(F)ccc4n23)CC1` , thanks.
6.41
